# test-protocol: NCI Yeast Anticancer Drug Screen. Data for the rad50 strain (AID 155);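 further: 0% = growth of vehicle-only cultures of the same strain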
# stated-conditions: S. cerevisiae rad50 strain growth inhibition; at 50.0 µM
Compounds without any hit were thinned out: in the full panel of roughly 79,000, 15% have a hit. Activity calls are given as the source filed them. No stated cut-off is given here; in the data, active means growth inhibition above about 70%; inactive means the rest.
One label from this list, please: active, inactive

Recorded results for 4 compounds are shown here.
- compound: "Cc1ccc(NC(=O)Cc2nc3ccccc3s2)c(C)c1"
  assigned-label: "active"
- compound: "CC(O)c1c2c(cc3c1CC1(C3)Cc3cc4c(c(C(C)O)c3C1)CCC4)CCC2 (stereo unspecified)"
  assigned-label: "active"
- compound: "COc1ccc2c(c1)Cc1ccccc1C2=O"
  assigned-label: "inactive"
- compound: "COc1ccc(COCCOCc2nc(C#N)c(N)o2)cc1"
  assigned-label: "inactive"

Please share the test call associated with "NCCCNCc1c2ccccc2c(CNCCCN)c2ccccc12" .
inactive

Please share the test call associated with "Cc1c(Cl)c(S(N)(=O)=O)cc2c1NC=NS2(=O)=O" .
inactive

Please share the test call associated with C/C=C1\CC(C)(CC)C(C#N)(C#N)C(N)=C1C#N (stereo unspecified) .
inactive

Please share the test call associated with "[N-]=[N+]=NC1=CC(=O)c2cccc3cccc1c23" .
active

Please share the test call associated with "CCCCN1CCN(c2ccc([N+](=O)[O-])c3no[n+]([O-])c23)CC1" .
active

###

# test-protocol: NCI Yeast Anticancer Drug Screen. Data for the sgs1 mgt1 strain (AID 161);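 further: 0% = growth of cultures given vehicle only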
# stated-conditions: S. cerevisiae sgs1 mgt1 strain, at 5.0 µM (retest, dose inferred, filed as 0.5), hits give high values
# Experimental: Growth inhibition of yeast strains with defined genetic alterations is measured as a screen for potential anti-cancer activity. Selected strains with alterations in DNA damage repair or cell cycle control were exposed to compounds and growth inhibition was measured relative to vehicle treated controls. The strain used in this assay is sgs1 mgt1
Compounds without any hit were thinned out: in the full panel of roughly 79,000, 15% have a hit.
Given measured growth inhibition, output 1 if it is greater than or equal to 10% and -1 if not.

- molecule: "CN1CCC(CCC(=O)OC(C)(C)C)(CN2c3ccccc3Sc3ccccc32)C1 (stereo not drawn)"
  assigned-label: -1
- molecule: "CCN(CC)c1ccc(N=C2C=C(C(=O)Nc3cccc(Cl)c3)C(=O)c3ccccc32)c(C)c1"
  assigned-label: -1

Reported growth inhibition reaches at least 10% for "C(=C1/CNC/C(=C/c2ccccc2)C1)/c1ccccc1" ?
1

Reported growth inhibition reaches at least 10% for "N#C/C(=C/c1cc(I)cc(I)c1O)C(N)=O" ?
1

Reported growth inhibition reaches at least 10% for "O=[N+]([O-])c1ccc(S(=O)(=O)C/C=C/CCl)c([N+](=O)[O-])c1" ?
1

Reported growth inhibition reaches at least 10% for CCCCCCCCCCCC[N+]1(C)CCCC1c1cccnc1 (stereo not drawn) ?
-1

Reported growth inhibition reaches at least 10% for "CC(CCN)(CCN)[N+](=O)[O-]" ?
-1

###

# test-protocol: NCI Yeast Anticancer Drug Screen. Data for the bub3 strain (AID 167)
# stated-conditions: S. cerevisiae bub3 mutant strain, at 50.0 µM, hits give high values
This is part of a sample that, as a whole, favours compounds with a hit. Of some 79,000 tested, about 15% had one in any assay.
Given measured growth inhibition, output class 1 if it is greater than or equal to 80% and class 0 if not.

Recorded results for 5 molecules are shown here.
- molecule: "c1ccc2nc3[nH]c4ccccc4c3cc2c1"
  assigned-label: "class 0"
- molecule: "COc1ccc(C2=NN(c3ccccc3)C[N+](c3ccc(OC)cc3)=N2)cc1"
  assigned-label: "class 1"
- molecule: "CC1(C)CC(=O)C(/C=N/c2nc(-c3cccc([N+](=O)[O-])c3)cs2)=C(O)C1"
  assigned-label: "class 1"
- molecule: "O=NNc1ccc(Sc2ccc3ccccc3c2)cn1"
  assigned-label: "class 0"
- molecule: "O=C1C(N=Nc2ccccc2)=C(O)C2C3C=CC(C3)C12 (configuration not stated)"
  assigned-label: "class 1"

Reported growth inhibition reaches at least 80% for "Nc1ncnc2c1c(-c1ccccc1)cn2-c1ccc(Br)cc1" ?
class 0

Reported growth inhibition reaches at least 80% for "COC(=O)c1cc(/C=C/c2ccccc2)on1" ?
class 0

Reported growth inhibition reaches at least 80% for CCSSC12CCCN1C(=O)C(C)N(C)C2=O (configuration not stated) ?
class 0

Reported growth inhibition reaches at least 80% for "NC(=Nc1cc2ccccc2c2ccccc12)Nc1cc2ccccc2c2ccccc12" ?
class 1

Reported growth inhibition reaches at least 80% for "C1=Cc2ccccc2/C1=C/c1ccccc1" ?
class 1

Reported growth inhibition reaches at least 80% for CCc1ccccc1NC(=O)C(C#N)C1=C(Cl)C(=O)c2ccccc2C1=O (configuration not stated) ?
class 1

Reported growth inhibition reaches at least 80% for "c1ccc([P+](c2ccccc2)(c2ccccc2)C2CCCC2)cc1" ?
class 1

Reported growth inhibition reaches at least 80% for "COC(=O)c1nc(Cl)nc(Cl)c1N" ?
class 1

Reported growth inhibition reaches at least 80% for "S=c1[nH]c2c(-c3ccccc3)cccc2s1" ?
class 0

Reported growth inhibition reaches at least 80% for Cc1ccccc1C(=O)C(C)c1ccccc1 (configuration not stated) ?
class 0

Reported growth inhibition reaches at least 80% for "NCc1cccc(O)c1O" ?
class 0

Reported growth inhibition reaches at least 80% for "COc1ccccc1NC(=O)/C(=C/n1c(=S)sc2ccccc21)C(C)=O" ?
class 0

Reported growth inhibition reaches at least 80% for "COC(=O)c1ccccc1NC(=S)NN(C)C" ?
class 0

Reported growth inhibition reaches at least 80% for CCC(C)NCCNc1cc(OC)cc2cccnc12 (configuration not stated) ?
class 0

Reported growth inhibition reaches at least 80% for "CCS(=O)(=O)c1ccc(NC(=O)OC2CCCCCCC2)cc1" ?
class 1

Reported growth inhibition reaches at least 80% for "COC(=O)C1=C(C)NC(C)=C(C(=O)OC)C1c1ccc(NCc2ccccc2)c([N+](=O)[O-])c1" ?
class 0

Reported growth inhibition reaches at least 80% for "Nc1cc(Cl)c2c(c1)Cc1ccccc1-2" ?
class 0

Reported growth inhibition reaches at least 80% for "CCNC1(C2c3ccccc3-c3ccccc32)c2ccccc2-c2ccccc21" ?
class 0

Reported growth inhibition reaches at least 80% for "COc1ccc(C(=O)c2ccc([N+](=O)[O-])cc2)cc1" ?
class 0

meta.source: PubChem BioAssay (NCI)
